- Test system: Streptococcus agalactiae
- experimental_details: Antibacterial activity against Streptococcus agalactiae at 80 ug/ml after 24 hrs by Oxford cup assay
- Format: functional
- condition_details: read-out: IZ
Please go through the items and note down their zone of inhibition at 80 µg/mL.
Give bare numbers, in mm.

C=C[C@]1(C)C[C@@H](OC(=O)CSC(C)(C)CNC(=O)c2cccc(C)c2)[C@]2(C)[C@H](C)CC[C@]3(CCC(=O)[C@H]32)[C@@H](C)[C@@H]1O | 13
C=C[C@]1(C)C[C@@H](OC(=O)CSC(C)(C)CNC(=O)[C@H](N)C(C)C)[C@]2(C)[C@H](C)CC[C@]3(CCC(=O)[C@H]32)[C@@H](C)[C@@H]1O | 12.8

Kindly consider the entry below.
[in] Reported zone of inhibition at 80 µg/mL for "C=C[C@]1(C)C[C@@H](OC(=O)CSC(C)(C)CNC(=O)c2ccccc2C)[C@]2(C)[C@H](C)CC[C@]3(CCC(=O)[C@H]32)[C@@H](C)[C@@H]1O" : what is it?
[out] 10

Hey, just so you know, these numbers are from ChEMBL document CHEMBL2375359.
